Ref: ChEMBL document CHEMBL5385893

Quick reference for CC50 at 72 h among some molecules
# experiment_notes: Cytotoxicity against human THP-1 cells assessed as cell death by measuring metabolism of resazurin to resorufin measured after 3 days
# Type: toxicity, cell-based
# recorded_conditions: time 3 day
Respond with the bare value in µM.

>>> df
                            molecule_smiles  parameter_measured  units_text  observed_measurement
0  CCCCCCCC/C=C\CCCCCCCCCCCCOP(=O)([O-])OCCC[N+](C)(C)C        CC50 at 72 h          µM                     2

Can you look up the measured CC50 at 72 h of Cc1c(C(=O)N[C@@H](Cc2ccccc2)[C@@H](O)C(=O)NCc2ccccc2)[nH]c2ccccc2c1=O for me?
93

====

# System: Leishmania donovani
# experiment_notes: Antileishmanial activity against promastigotes-based model of Leishmania donovani MHOM/SD/62/1S-CL2D assessed as growth inhibition by measuring metabolism of resazurin to resorufin by aerobic respiration at 50 uM measured after 3 days relative to control
# Format: functional
# recorded_conditions: 72 h, time 3 day
This section presents molecules with their documented inhibition at 50 µM values.
Answer in %, number only, no unit symbol.

                            molecule_smiles  observed_measurement
0  COc1ccc(CNC(=O)C(=O)[C@H](Cc2ccccc2)NC(=O)c2[nH]c3ccccc3c(=O)c2C)cc1                     9
1  CCNC(=O)[C@H](O)[C@H](Cc1ccccc1)NC(=O)c1[nH]c2ccccc2c(=O)c1C                     1
2  COc1ccc(CNC(=O)C(=O)[C@H](Cc2ccccc2)NC(=O)c2[nH]c3ccccc3c(=O)c2C)cc1OC                    38

Moving on to the next molecule.
Given the molecule Cc1c(C(=O)N[C@@H](Cc2ccccc2)[C@@H](O)C(=O)NCc2ccccn2)[nH]c2ccccc2c1=O , what is its reported inhibition at 50 µM?
12

====

# experiment_notes: Cytotoxicity against human HEK293T cells assessed as cell death by measuring metabolism of resazurin to resorufin measured after 3 days
# Format: toxicity, cell-based, HEK-293T
# recorded_conditions: time 3 day
Listed here: items and their measured CC50 at 72 h.
Write it as a number; the unit µM goes unstated.

May I ask what CC50 at 72 h has been recorded for CCCCCCCC/C=C\CCCCCCCCCCCCOP(=O)([O-])OCCC[N+](C)(C)C ?
28

Could you do the same for Cc1c(C(=O)N[C@@H](Cc2ccccc2)C(=O)C(=O)NCCc2ccccc2)nc2ccccc2c1O , please?
107
